Tested on: Sonic hedgehog protein (Shh)
Experiment: Sonic hedgehog microarray binding compounds – biochemical, small-molecule microarray, 635/667 nm fluorescence, primary screen (AID 1151);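 also: Shh protein binding to compounds spotted on small-molecule microarray slides; score combines spot fluorescence intensity with signal-to-noise across triplicate slides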
Settings: 635 nm fluorescence, higher = more signal

{"COMPOUND": "COC(=O)[C@]1(Cc2ccccc2)N=C(c2ccc(OCCCO)cc2)O[C@@H]1c1ccccc1N=[N+]=[N-]", "composite z-score": 0.354}
{"COMPOUND": "CCOC(=O)[C@H]1C/C=C/C[C@H](C(=O)OCC)C(=O)O[C@H]2[C@@H](OC)O[C@H](CO)[C@@H](OC(=O)c3ccc(Br)cc3)[C@@H]2OC1=O", "composite z-score": 0.473}
{"COMPOUND": "O[C@@H](Cc1ccccc1)[C@@H](/C=C/C1CC1)NCc1cccc(Cl)c1", "composite z-score": -1}
{"COMPOUND": "OCC1C=C(/C=C/c2ccccc2)CN1Cc1ccccc1Br (stereo unspecified)", "composite z-score": 1.39}
{"COMPOUND": "CCOC(=O)C[C@H]1[C@H](OC(=O)c2ccc(C(=O)c3ccccc3)cc2)[C@@H](NC(=O)c2ccccc2)c2cc(OCCCO)ccc2N1C(=O)c1ccccc1", "composite z-score": 0.907}
{"COMPOUND": "C#CCN1[C@@H](Cc2ccc(O)cc2)C(=O)O[C@H](Cc2ccccc2)[C@@H]1/C=C/C1CC1", "composite z-score": 0.284}
{"COMPOUND": "COc1ccc(C(O)C2C=CC3C(=O)N(C)C(=O)C3N2N(c2ccccc2)c2ccccc2)c2ccccc12 (stereo unspecified)", "composite z-score": 1.11}
{"COMPOUND": "C=C(/C(=C/C[C@H](OC(=O)c1ccncc1)c1ccc(OCCO)cc1)c1cc(C(=O)OC)ccc1OC)C(C)C", "composite z-score": 0.711}
{"COMPOUND": "COc1ccc(C#Cc2ccc3c(c2)[C@]2(C(=O)N3)[C@H](c3ccc(O)cc3)N3[C@H](c4ccccc4)[C@H](c4ccccc4)OC(=O)[C@H]3[C@@H]2C(=O)N2CCc3cc(OC)c(OC)cc3C2)cc1", "composite z-score": 1.78}
{"COMPOUND": "C=C(CCCC)/C(=C/C[C@H](OC(C)=O)c1ccccc1OCCO)c1cnc2ccccc2c1", "composite z-score": 1.49}
{"COMPOUND": "O=C(O)[C@H]1C[C@H]2C(=O)N3CCC[C@H]3C(=O)N2[C@H]1c1ccc(O)cc1", "composite z-score": 0.0164}
{"COMPOUND": "C=C(CCCC)C(=O)CC[C@@H](OC(C)=O)c1ccc(CO)o1", "composite z-score": 1.95}
{"COMPOUND": "COC(=O)c1c2oc(c1C(=O)OC)C(=O)N[C@@H](C(C)C)Cn1cc(nn1)C1(CCCCC1)NC(=O)N[C@H](CO)CC2", "composite z-score": 0.246}
{"COMPOUND": "CN(C)C(=O)[C@]1(Cc2ccccc2)N=C(c2ccc(OCCCO)cc2)O[C@@H]1c1ccccc1N=[N+]=[N-]", "composite z-score": 0.0841}
{"COMPOUND": "COc1ccc(C(O)C2C=CC3C(=O)N(C)C(=O)C3N2NC(=O)OC(C)(C)C)c2ccccc12 (stereo unspecified)", "composite z-score": -0.416}
{"COMPOUND": "CC(=O)NCCCC[C@@H]1NC(=O)[C@H]2C[C@@H](C(=O)O)[C@@H](c3ccc(O)cc3)N2C1=O", "composite z-score": 2.02}
{"COMPOUND": "O=C(O)[C@@]1(CCS(=O)(=O)c2ccccc2)N=C(c2ccc(OCCCO)cc2)O[C@H]1c1ccccc1", "composite z-score": -0.338}
{"COMPOUND": "C=CCC(OC(C)=O)[C@@H]1[C@@H](N(Cc2cc3ccccc3o2)C(=O)Cc2ccc(OC)cc2)c2cc(OCCCO)ccc2N1C(=O)c1ccc2ccccc2c1 (stereo partly specified)", "composite z-score": 0.688}
{"COMPOUND": "COC(=O)c1c(CC[C@@H](CO)NC(=O)N[C@@H](Cc2ccccc2)Cn2cc(-c3ccccn3)nn2)oc(C(=O)N2CCOCC2)c1C(=O)OC", "composite z-score": 1.72}
{"COMPOUND": "[N-]=[N+]=NCc1ccccc1[C@H]1OC(c2ccc(OCCCO)cc2)=N[C@@]1(Cc1ccccc1)C(=O)N1CCCCC1", "composite z-score": 0.413}
{"COMPOUND": "[N-]=[N+]=NCc1ccccc1[C@@H]1OC(c2ccc(OCCCO)cc2)=N[C@]1(CCS(=O)(=O)c1ccccc1)C(=O)N1CCOCC1", "composite z-score": -0.149}
{"COMPOUND": "COC(=O)[C@@]1(Cc2ccccc2)[C@H]2c3cc(C(=O)N4CCCC4)n(Cc4c(CO)[nH]cc(C)c4=O)c3C[C@H]2CN1C(=O)c1ccccc1", "composite z-score": -0.547}
{"COMPOUND": "C=C(C)[C@@H]1CC=C(C(O)C2C=CC3C(=O)NC(=O)C3N2Nc2ccc(Cl)cc2Cl)CC1 (stereo partly specified)", "composite z-score": 0.393}
{"COMPOUND": "C=C[C@H](C)[C@@H](OC(=O)Nc1ccc(SC)cc1)c1ccc(O)c2ccccc12", "composite z-score": 1.76}
{"COMPOUND": "NCCCCCNC(=O)[C@H]1C[C@H]2C(=O)N3CCC[C@H]3C(=O)N2[C@H]1c1ccc(O)cc1", "composite z-score": 1.65}
{"COMPOUND": "CCCC[C@@H]1C[C@H]1[C@@H](NC(=O)c1cccnc1)c1ccc(Cl)cc1", "composite z-score": -1.35}
{"COMPOUND": "CCOC(=O)C1=CC[C@@H](c2ccccc2)N(S(=O)(=O)c2ccc(C)cc2)[C@H]1c1ccc(CC)cc1", "composite z-score": -0.737}
{"COMPOUND": "COCCCNC(=O)[C@@H]1c2ccccc2C(=O)N(Cc2ccccc2OC)[C@H]1c1ccc(CO)cc1", "composite z-score": 2.03}
{"COMPOUND": "CCCCC(O)C1C=CC2C(=O)N(C)C(=O)C2N1N1CCCCC1 (stereo unspecified)", "composite z-score": 0.0629}
{"COMPOUND": "NC(=O)[C@@H]1[C@H]2C(=O)O[C@H](c3ccccc3)[C@H](c3ccccc3)N2[C@H](c2ccc(OCCO)cc2)[C@@]12C(=O)Nc1ccc(C#CC3=CCCCC3)cc12", "composite z-score": 1.24}
{"COMPOUND": "O=C(CS)NCCCCCNC(=O)[C@@H]1C[C@@H]2C(=O)NCC(=O)N2[C@@H]1c1ccc(O)cc1", "composite z-score": 1.44}
